pKi: −log10 of the molar value.
Let's go through some pKi measurements on 5-hydroxytryptamine receptor 2C (Homo sapiens) together.
Sequence (P28335 whole entry): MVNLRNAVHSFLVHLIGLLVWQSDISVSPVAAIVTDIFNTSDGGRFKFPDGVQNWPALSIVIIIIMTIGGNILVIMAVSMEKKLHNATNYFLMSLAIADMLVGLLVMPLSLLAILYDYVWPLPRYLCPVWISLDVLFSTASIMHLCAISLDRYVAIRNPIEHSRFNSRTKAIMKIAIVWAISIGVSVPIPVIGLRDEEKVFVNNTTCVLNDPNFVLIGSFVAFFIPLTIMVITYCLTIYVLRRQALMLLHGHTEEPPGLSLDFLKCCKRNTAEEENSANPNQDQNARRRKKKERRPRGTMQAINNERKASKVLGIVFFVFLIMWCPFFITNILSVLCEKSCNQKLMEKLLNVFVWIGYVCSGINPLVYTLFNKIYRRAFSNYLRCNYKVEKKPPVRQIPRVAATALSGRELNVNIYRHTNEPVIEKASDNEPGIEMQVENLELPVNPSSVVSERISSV
REPORTED ENDPOINT: pKi

1) COc1cc2c3c(c1)-c1c(cccc1OCCCF)C[C@H]3N(C)CC2
6.47
2) COc1cc2c3c(c1)-c1c(cccc1OC(=O)c1ccc(F)cc1)C[C@H]3N(C)CC2
7.49
3) COc1cc2c3c(c1)-c1c(cccc1OCCF)C[C@H]3N(C)CC2
6.46
4) CCCN1CCc2cc(OC)cc3c2[C@H]1Cc1cccc(OC(=O)c2ccc(F)cc2)c1-3
7.62

---

target: Serotonin 2 receptors; 5-HT2a & 5-HT2c (Homo sapiens) (UniProt P28223+P28335); assay: Selectivity ratio of Ki for displacement of [3H]ketanserin from 5HT2A receptor (unknown origin) expressed in HEK293T cell membranes to Ki for displacement of [3H]mesulergine from 5HT2C receptor (unknown origin) expressed in HEK293T cell membranes
Sequence (P28223 whole entry, looked up): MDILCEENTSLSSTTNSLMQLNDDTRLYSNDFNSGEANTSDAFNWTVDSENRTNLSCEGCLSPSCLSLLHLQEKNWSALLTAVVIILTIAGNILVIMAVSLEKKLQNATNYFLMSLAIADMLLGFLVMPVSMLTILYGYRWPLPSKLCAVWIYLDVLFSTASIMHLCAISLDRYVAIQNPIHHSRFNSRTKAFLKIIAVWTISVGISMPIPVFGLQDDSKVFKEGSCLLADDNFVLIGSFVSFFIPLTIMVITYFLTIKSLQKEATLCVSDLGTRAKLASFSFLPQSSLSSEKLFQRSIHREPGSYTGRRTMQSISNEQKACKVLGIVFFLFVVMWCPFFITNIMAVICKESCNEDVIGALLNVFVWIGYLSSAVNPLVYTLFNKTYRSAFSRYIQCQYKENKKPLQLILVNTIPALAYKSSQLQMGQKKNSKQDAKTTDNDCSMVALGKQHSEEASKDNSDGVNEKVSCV
Sequence (P28335 whole entry, looked up): as the sequence (P28335 whole entry) above
Below, each entry is listed alongside its reported Ratio Ki.
REPORTED ENDPOINT: Ratio Ki

1. COc1cc2c3c(c1)-c1c(cccc1OCCCF)C[C@H]3N(C)CC2
1.3
2. CCCN1CCc2cc(OC)cc3c2[C@H]1Cc1cccc(OC(=O)c2ccc(F)cc2)c1-3
17
3. COc1cc2c3c(c1)-c1c(cccc1OCCF)C[C@H]3N(C)CC2
3.3
4. COc1cc2c3c(c1)-c1c(cccc1OC(=O)c1ccc(F)cc1)C[C@H]3N(C)CC2
14
